Biological target: h-GABA-A α5β3γ2 (Homo sapiens, UniProt P18507+P31644)
Test: Two-electrode voltage clamp electrophysiology in Xenopus laevis oocytes expressing GABAA receptors, modulation of GABA EC20 current
Assay type: cell-based
Set-up: host or cells: Xenopus laevis oocytes micro-injected with RNA transcripts of the subunits
Settings: test compound at approx. 30 fold its Ki, GABA at EC20; Table 1
Quick reference for Fold increase h-GABA-A α5β3γ2 oocyte among some compounds
Please give only the number in your answer, with no unit.

Study these solved cases before continuing.
[[record]]
compound = "Cc1ccc(-c2noc(C)c2Cn2ncc(N(C)C3COC3)cc2=O)cn1"
observable = "Fold increase h-GABA-A α5β3γ2 oocyte"
endpoint_result = 2.42

[[record]]
compound = "Cc1ccc(-c2noc(C)c2Cn2ncc(N3CC(OC4(C)CC4)C3)cc2=O)nn1"
observable = "Fold increase h-GABA-A α5β3γ2 oocyte"
endpoint_result = 2

[[record]]
compound = "CCOc1ncc(-c2cnn(Cc3c(-c4ccc(C)nc4)noc3C)c(=O)c2)cc1C"
observable = "Fold increase h-GABA-A α5β3γ2 oocyte"
endpoint_result = 2.96

[[record]]
compound = "Cc1ccc(-c2noc(C)c2Cn2ncc(N3C[C@H]4CC[C@@H](C3)O4)cc2=O)cn1"
observable = "Fold increase h-GABA-A α5β3γ2 oocyte"
endpoint_result = 2.36

[[record]]
compound = "Cc1ccc(-c2noc(C)c2Cn2ncc(N3CC4(CCCCO4)C3)cc2=O)cn1"
observable = "Fold increase h-GABA-A α5β3γ2 oocyte"
endpoint_result = 2.03

[[record]]
compound = "Cc1ccc(-c2noc(C)c2Cn2ncc(N3CC(Oc4ccncc4)C3)cc2=O)cn1"
observable = "Fold increase h-GABA-A α5β3γ2 oocyte"
endpoint_result = 2.98


Moving on to the next compound.
[Q] Output measured Fold increase h-GABA-A α5β3γ2 oocyte for this item: COC1CN(c2cnn(Cc3c(-c4ccc(C)nc4)noc3C)c(=O)c2)C1
[A] 2.34

----------
Target: h-GABA-A α5β3γ2 (Homo sapiens, UniProt P18507+P31644)
Test: [3H]flumazenil competition binding assay, membranes of HEK293 cells expressing GABAA receptors
Settings: displacement of [3H]-Flumazenil 0.5 nM, HEK293 cells expressing human receptors, mean of two determinations; Table 1
Entry class follows Ki: L (below 4 nM), M (4 nM to below 20 nM), H (20 nM or more)

[[record]]
molecule = "Cc1onc(-c2ccc(Cl)nc2)c1Cn1ncc(N2CC3(C2)CC(F)(F)CO3)cc1=O [Example 217]"
class = "M"

[[record]]
molecule = "Cc1ccc(-c2noc(C)c2Cn2ncc(N3CC(OC4CC4)C3)cc2=O)nn1 [Example 239]"
class = "L"


[Q] Each molecule maps to one class by Ki. Which class for Cc1onc(-c2ccc(Cl)cn2)c1Cn1ncc(N2CCN(C(=O)C3(C)CC3)CC2)cc1=O [Example 16] ?
[A] L

[Q] Hi there! Could you help me figure out the category for Cc1onc(-c2ccc(Cl)nc2)c1Cn1ncc(N2CC3(CCC(F)CO3)C2)cc1=O (single isomer, unassigned) [Example 298] please?
[A] H

[Q] For Cc1ccc(-c2noc(C)c2Cn2ncc(N3CC(O)C3)cc2=O)cn1 [Example 105] , which Ki bin applies?
[A] M

[Q] Bin this entry: Cc1ccc(-c2noc(C)c2Cn2ncc(N3CCC(C#N)CC3)cc2=O)cn1 [Example 34]
[A] M

[Q] Assign a bin to CCOC1CN(c2cnn(Cc3c(-c4cnc(C)c(F)c4)noc3C)c(=O)c2)C1 [Example 213]
[A] H

[Q] Could you place Cc1onc(-c2ccc(C(F)(F)F)nc2)c1Cn1ncc(N2C[C@@H](C)O[C@@H](C)C2)cc1=O [Example 39] in its proper category? Many thanks.
[A] L

[Q] Textbook exercise: identify the category of the molecule given here, Cc1ccc(-c2noc(C)c2Cn2ncc(-c3ccnc(OC(F)F)c3)cc2=O)cn1 [Example 175] , according to its measured value.
[A] M

[Q] Hi, small favor: classify Cc1ccc(-c2noc(C)c2Cn2ncc(N3CCC(C(=O)NC4CC4)CC3)cc2=O)cn1 [Example 27] by its Ki when you get a moment.
[A] M

[Q] Hi, small favor: classify Cc1ccc(-c2noc(C)c2Cn2ncc(-c3ccc(N(C)C)nc3)cc2=O)cn1 [Example 116] by its Ki when you get a moment.
[A] H

[Q] Exam item: assign Cc1onc(-c2ccc(Cl)nc2)c1Cn1ncc(-c2cnn(C3CC3)c2)cc1=O [Example 222] to the correct category.
[A] H

[Q] Field: class (Ki) — entry: Cc1ccc(-c2noc(C)c2Cn2ncc(N3CCC(C)(O)C3)cc2=O)cn1 (centres unmarked) [Example 118]
[A] M

[Q] Just checking, what class would you give Cc1onc(-c2ccc(Cl)cn2)c1Cn1ncc(N2CC3(C2)CN(C2CC2)C3)cc1=O [Example 86] here?
[A] M

[Q] Into which bin does this molecule go? Cc1onc(-c2ccc(Cl)nc2)c1Cn1ncc(N2CCC3(CC2)CC(F)CCO3)cc1=O (single isomer, unassigned) [Example 331]
[A] M

[Q] Returns: class label. Input: Cc1onc(-c2ccc(C3CC3)nc2)c1Cn1ncc(N2CC3(C2)CC(F)(F)CO3)cc1=O [Example 260]
[A] L

[Q] Input Cc1ccc(-c2noc(C)c2Cn2ncc(N3CCNCC3)cc2=O)cn1 [Example 75] ; output its category
[A] L

All figures here come from patent US11840528B2.
